# Assay Explanation: microbe, parasite or virus in culture
# Experimental Parameters: Mycobacterium tuberculosis, 96 h, read-out: pIC50 (converted)
# note: exactly 90 µM is not below, so it is Condition not met; use Condition met for IC50 strictly under it

Recorded results for 3 compounds are shown here.
Compound	Discrete Label
NCCCOc1ncc(C(F)(F)F)cc1Cl	Condition not met
Cn1cc(NC(=O)C2=Cc3ccccc3OC2)cn1	Condition not met
NCC(O)c1ccc(-c2ccccc2)cc1 (stereo unspecified)	Condition not met

Req: Confirm or reject: IC50 of Cc1ccc(C(O)c2cccnc2)cc1 (stereo unspecified) lies strictly below 90 µM
Resp: Condition not met

Req: Confirm or reject: IC50 of NCC(O)c1ccc(Cl)s1 (stereo unspecified) lies strictly below 90 µM
Resp: Condition not met

Req: Confirm or reject: IC50 of "CC(C)(C)c1noc(CCC(=O)N2CCSCC2)n1" lies strictly below 90 µM
Resp: Condition not met

Req: Confirm or reject: IC50 of "N#Cc1ccc(S(=O)(=O)NCCN)cc1C(F)(F)F" lies strictly below 90 µM
Resp: Condition not met

Req: Confirm or reject: IC50 of CCN1c2ccc(-c3cncn3CCCn3ccnc3C)cc2CC1C.Cl (stereo unspecified) lies strictly below 90 µM
Resp: Condition met

Req: Confirm or reject: IC50 of "CCOc1ccc(CSc2nnc[nH]2)cc1" lies strictly below 90 µM
Resp: Condition not met

Req: Confirm or reject: IC50 of CC(C)c1ccc(S(=O)(=O)C(C)C(N)=O)cc1 (stereo unspecified) lies strictly below 90 µM
Resp: Condition not met

Req: Confirm or reject: IC50 of "O=C1NC(=O)c2c(O)cccc21" lies strictly below 90 µM
Resp: Condition not met

Req: Confirm or reject: IC50 of "Cc1cc(CN(C)Cc2csc(-c3ccc(C(C)C)cc3)n2)no1" lies strictly below 90 µM
Resp: Condition met

Req: Confirm or reject: IC50 of CC(Sc1nnc[nH]1)C(=O)Nc1ccc(C#N)cc1 (stereo unspecified) lies strictly below 90 µM
Resp: Condition not met

Req: Confirm or reject: IC50 of "Cc1cc(N(C)Cc2ccsc2)n2nc(C)c(C)c2n1" lies strictly below 90 µM
Resp: Condition met

Req: Confirm or reject: IC50 of CC(Nc1nc(-c2ccccc2)nc2c1CCNCC2)c1cccnc1 (stereo unspecified) lies strictly below 90 µM
Resp: Condition met

Req: Confirm or reject: IC50 of "O=C(CN1CCN(c2ccccc2)CC1)N1CCCC1" lies strictly below 90 µM
Resp: Condition not met
